assay: growth suppression of yeast trafficking mutant, preliminary HTS, modulators of trafficking downstream of Golgi apparatus project, 1536-format plate, OD 615 nm (AID 637); details: yeast transport mutant growth, absorbance 615 nm, 18 h; stronger effect = higher value
Listing of entries alongside the reported inhibition.
// units = %; emit number, no label

Consider the following illustrative entries.
>>> result_number("CCN(CC)CCNC(=O)c1ccc(NC(C)=O)cc1")
3.5
>>> result_number("CC1CCCC(NC(=O)CN2CCN(Cc3ccc(Cl)cc3)C2=O)C1C (stereo not drawn)")
4.92
>>> result_number("O=C(COn1nnc2ccc(C(F)(F)F)cc21)Nc1nnc(-c2ccccc2)o1")
-3.27
>>> result_number("O=C(NCc1ccco1)c1cc2cc3ccc(Cl)cc3nc2o1")
0
>>> result_number("CC(=O)c1ccccc1NS(=O)(=O)c1c(C)nn(-c2ccccc2)c1C")
-4.55

Proceeding to the next molecule to report its inhibition.
Prompt: Look up and report measured inhibition for this entry: CC(NC(=O)c1ccc2c(c1)OCO2)C(c1cccs1)N1CCOCC1 (stereo not drawn)
Completion: -0.95

====

Listing of entries alongside the reported viability.
experiment: reversal of MRP1-mediated doxorubicin resistance, pilot screen, H69AR cells, doxorubicin co-treatment (AID 601); settings: H69AR cells + 2 uM doxorubicin, CellTiter-Glo, 72 h; measured here: viability with 2 uM doxorubicin; at 10 µM; stronger effect = lower value
A complete answer gives the number followed by the unit.

Consider the following illustrative entries.
>>> result("O=C1CC(c2ccccc2)CC(O)=C1C=NCCCN1CCOCC1 (configuration not stated)")
"95%"
>>> result("CCOC(=O)C1C(=O)NC(SCC(=O)Nc2nccs2)=C(C#N)C1c1ccccc1OCC (configuration not stated)")
"72.3%"
>>> result("CC(CCc1ccccc1)NC(=O)C1CCN(S(=O)(=O)c2cnc[nH]2)CC1 (configuration not stated)")
"81.1%"
>>> result("Cc1ccc(Cn2c(=N)c(C(=O)NCc3ccco3)cc3c(=O)n4ccccc4nc32)cc1")
"47.4%"
>>> result("O=C(NC(NC1CCS(=O)(=O)C1)C(=O)c1cccs1)c1ccccc1 (configuration not stated)")
"98.2%"

Prompt: Look up and report measured viability for this entry: Cc1cccc2cc(C#N)c(SCCN3CCCCC3)nc12
Completion: 78.2%

Prompt: Look up and report measured viability for this entry: O=C(O)c1cnn2c1NC(c1ccc(F)cc1)CC2C(F)(F)F (configuration not stated)
Completion: 88.3%

Prompt: Look up and report measured viability for this entry: Cc1nc(NC2=NCN(CCN3CCOCC3)CN2)nc2c(C)cccc12
Completion: 108%

Prompt: Look up and report measured viability for this entry: COc1ccccc1-c1c(C)nn2c(C)c(C(C)=O)cnc12
Completion: 84%

====

assay: 384-well plate pilot, post-Golgi transport modulator project, inhibition of yeast transport mutant growth (AID 636); settings: absorbance 615 nm, about 18 h
Calls of active or inactive are those of the source. Cut-off read from the data, not from the text of the source: active = inhibition above about 31%; inactive = the rest.
Pick from active, inactive when you respond.

>>> group_label("CCC(C(=O)Nc1ncccn1)(C(F)(F)F)C(F)(F)F")
"inactive"
>>> group_label("CCOC(=O)C1CCCN(Cc2nc(N)nc(Nc3ccccc3)n2)C1 (configuration not stated)")
"inactive"
>>> group_label("CCOC(=O)CC(C#N)c1cn(C)c2ccccc12 (configuration not stated)")
"inactive"
>>> group_label("Cn1c(=O)c2c(nc(NCCCO)n2Cc2cccc(Br)c2)n(C)c1=O")
"inactive"
>>> group_label("CSc1c(CC(=O)NCCO)n(C)c2ccccc12")
"inactive"

Prompt: Check the results log: what was the call for O=C(CCCn1c(=S)[nH]c2cc3c(cc2c1=O)OCO3)N1CCN(c2ccccc2F)CC1 ?
Completion: inactive

Prompt: Check the results log: what was the call for CCOC(=O)C1CCCN(C(=O)c2sc3nc(-c4ccccc4)cn3c2C)C1 (configuration not stated) ?
Completion: inactive

Prompt: Check the results log: what was the call for COC(=O)CCC(NC(=O)c1cc(-c2ccc3c(c2)OCCO3)oc1C)C(=O)OC (configuration not stated) ?
Completion: inactive

Prompt: Check the results log: what was the call for COc1cccc(N2CCN(c3ncnc4c3[nH]c3ccc(F)cc34)CC2C)c1 (configuration not stated) ?
Completion: active
